System: UACC-62 melanoma
procedure-text: NCI tumour cell line growth inhibition, 48 h

compound	TGI
CCOP(=O)(CCN1CCN(CCCCCOc2cc3c(cc2OC)C(=O)N2CCC[C@H]2C=N3)CC1)OCC	24.2 µM
CCOC(=O)CCC(NC(=O)c1ccc(OCc2ccc3nc(OC)c(OC)nc3c2)cc1)C(=O)OCC (centres undefined)	> 100 µM
CCn1c(SCC(=O)NNC(=S)Nc2ccc(Cl)cc2)nc2ccccc2c1=O	> 100 µM
O=C(Nc1sccc1S(=O)(=O)c1ccc(Cl)cc1)c1ccc(Cl)cc1Cl	> 100 µM
C[As](C)SCC(NC(=O)CCC(N)C(=O)O)C(=O)NCC(=O)O.Cl.c1ccncc1 (centres undefined)	1.13 µM
CC(=O)Nc1c(I)c(C(=O)O)c(I)c(N(C)C(C)=O)c1I	> 100 µM
C=C1C(=O)O[C@H]2[C@H]1CC/C(COC(=O)c1cccc3ccccc13)=C\CC[C@@]1(C)O[C@@H]21	2.94 µM
Cc1ccn2c(-c3csc(Nc4cccc(O)c4)n3)c(C)nc2c1	19.2 µM
O=C1c2ccccc2-c2c1c1c(O)cccc1n2CCCc1ccccc1	> 100 µM
CN(CCNC(=O)c1cn(C)c2c1ccc1cc(Cl)ccc12)CCNC(=O)c1cn(C)c2c1ccc1cc(Cl)ccc12	10.8 µM
Nc1nc2c(c(=O)[nH]1)N=C(COP(=O)(O)OP(=O)(O)O)CN2	> 100 µM
NC(CCC(=O)NC(CSC(=O)N(O)c1ccc(Cl)cc1)C(=O)NCC(=O)O)C(=O)O (centres undefined)	> 0.5 µM
O=C(O)CN(CC(=O)O)c1ccccc1	> 100 µM
CN(C)C=NCc1ccc2c(c1)OCO2	> 100 µM

Origin of values: PubChem BioAssay (NCI)
